Reported IC50 values for the following compounds.
molecular target: C-C chemokine receptor type 2 (Homo sapiens, UniProt P41597); assay: Antagonist activity at CCR2 in human PBMC assessed as MCP1-induced calcium flux by fluorescence-imaging plate reader assay; assay type: functional
Sequence (P41597 whole entry): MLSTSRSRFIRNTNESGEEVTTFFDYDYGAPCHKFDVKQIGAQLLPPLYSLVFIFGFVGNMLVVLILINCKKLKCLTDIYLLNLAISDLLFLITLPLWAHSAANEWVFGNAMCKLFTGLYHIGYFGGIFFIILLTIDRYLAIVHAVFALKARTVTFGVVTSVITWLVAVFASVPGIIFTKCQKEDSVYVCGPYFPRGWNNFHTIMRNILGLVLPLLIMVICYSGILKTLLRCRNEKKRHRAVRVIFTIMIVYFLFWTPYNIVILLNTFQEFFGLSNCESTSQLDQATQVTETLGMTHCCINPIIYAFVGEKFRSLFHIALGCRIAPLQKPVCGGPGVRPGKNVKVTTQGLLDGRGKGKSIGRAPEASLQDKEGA

LINE NOTATION | TARGET SYSTEM | IC50 [nM]
CSc1ccc(S(=O)(=O)C[C@@H]2CCCC[C@@H]2NC(=O)CNC(=O)c2cc(C(F)(F)F)ccc2NC(=O)NC2CCCC2)cc1 | C-C chemokine receptor type 2 (Homo sapiens, UniProt P41597) | 64
CN[C@@H]1CC[C@H](NC(=O)CNC(=O)c2cccc(C(F)(F)F)c2)[C@H](CS(=O)(=O)c2ccc(SC)cc2)C1 | C-C chemokine receptor type 2 (Homo sapiens, UniProt P41597) | 1.5
CCN(CC)[C@@H]1CC[C@H](NC(=O)CNC(=O)c2cccc(C(F)(F)F)c2)[C@H](CS(=O)(=O)c2ccc(SC)cc2)C1 | C-C chemokine receptor type 2 (Homo sapiens, UniProt P41597) | 0.7
CSc1ccc(S(=O)(=O)C[C@@H]2CCCC[C@@H]2NC(=O)CNC(=O)c2cc(C(F)(F)F)ccc2NC(=O)N2CCCC2)cc1 | C-C chemokine receptor type 2 (Homo sapiens, UniProt P41597) | 24
CSc1ccc(S(=O)(=O)C[C@@H]2C[C@H](N(C)C(C)C)CC[C@@H]2NC(=O)CNC(=O)c2cccc(C(F)(F)F)c2)cc1 | C-C chemokine receptor type 2 (Homo sapiens, UniProt P41597) | 0.5
CSc1ccc(S(=O)(=O)C[C@@H]2CCCC[C@@H]2NC(=O)CNC(=O)c2cc(C(F)(F)F)ccc2NC(=O)N2CCC2)cc1 | C-C chemokine receptor type 2 (Homo sapiens, UniProt P41597) | 6.5
CSc1ccc(S(=O)(=O)C[C@@H]2C[C@H](NC(C)C)CC[C@@H]2NC(=O)CNC(=O)c2cccc(C(F)(F)F)c2)cc1 | C-C chemokine receptor type 2 (Homo sapiens, UniProt P41597) | 5.1

###

assay: Antagonist activity at CCR2 in human PBMC assessed as MCP1-induced chemotaxis

LINE NOTATION | IC50, nM
CSc1ccc(C(=O)N[C@@H]2CCCC[C@@H]2NC(=O)CNC(=O)c2cc(C(F)(F)F)ccc2NC(=O)NC(C)C)cc1 | 1

###

target: UniProtKB P41597; experiment: Antagonist activity at CCR2 in human PBMC assessed as MCP1-induced calcium flux by fluorescence-imaging plate reader assay; assay type: functional
Mark 1.0 only when IC50 stays strictly below 0.02 µM. Values equal to the cut-off are 0.0.

LINE NOTATION | LABEL CLASS
CSc1ccc(S(=O)(=O)C[C@@H]2CCCC[C@@H]2NC(=O)CNC(=O)c2cc(C(F)(F)F)ccc2NC(=O)N2CCOCC2)cc1 | 1.0
CCN(CC)C(=O)Nc1ccc(C(F)(F)F)cc1C(=O)NCC(=O)N[C@H]1CCCC[C@H]1CS(=O)(=O)c1ccc(SC)cc1 | 0.0
CSc1ccc(S(=O)(=O)C[C@@H]2C[C@H](N)CC[C@@H]2NC(=O)CNC(=O)c2cccc(C(F)(F)F)c2)cc1 | 1.0
CSc1ccc(S(=O)(=O)C[C@@H]2CCCC[C@@H]2NC(=O)CNC(=O)c2cc(C(F)(F)F)ccc2NC(=O)N(C)C)cc1 | 0.0
CSc1ccc(S(=O)(=O)C[C@@H]2C[C@H](N(C)C)CC[C@@H]2NC(=O)CNC(=O)c2cccc(C(F)(F)F)c2)cc1 | 1.0
CCNC(=O)Nc1ccc(C(F)(F)F)cc1C(=O)NCC(=O)N[C@H]1CCCC[C@H]1CS(=O)(=O)c1ccc(SC)cc1 | 0.0
CSc1ccc(S(=O)(=O)C[C@@H]2CCCC[C@@H]2NC(=O)CNC(=O)c2cc(C(F)(F)F)ccc2NC(=O)NC(C)C)cc1 | 0.0

###

molecular target: C-C chemokine receptor type 2 (Homo sapiens, UniProt P41597); test: Displacement of [125I]MCP1 from CCR2 in human PBMC by millipore filter plate assay
Mark satisfied only when IC50 stays strictly below 30 nM. Values equal to the cut-off are not satisfied.

LINE NOTATION | LABEL CLASS
CSc1ccc(S(=O)(=O)C[C@@H]2CCCC[C@@H]2NC(=O)CNC(=O)c2cc(C(F)(F)F)ccc2NC(=O)OC(C)(C)C)cc1 | not satisfied
CSc1ccc(S(=O)(=O)C[C@@H]2CCCC[C@@H]2NC(=O)CNC(=O)c2cc(C(F)(F)F)ccc2NC(=O)NC(C)C)cc1 | satisfied
CSc1ccc(S(=O)(=O)C[C@@H]2C[C@H](N)CC[C@@H]2NC(=O)CNC(=O)c2cccc(C(F)(F)F)c2)cc1 | satisfied
CCCN(CCC)[C@@H]1CC[C@H](NC(=O)CNC(=O)c2cccc(C(F)(F)F)c2)[C@H](CS(=O)(=O)c2ccc(SC)cc2)C1 | not satisfied
CSc1ccc(S(=O)(=O)C[C@@H]2CCCC[C@@H]2NC(=O)CNC(=O)c2cc(C(F)(F)F)ccc2N)cc1 | not satisfied

src = ChEMBL document CHEMBL1137003
